Values compiled from paper PMC9457746.

- target_entity: hCA II (Homo sapiens)
- measurement_notes: stopped flow CO2 hydrase assay, hCA II inhibition
pKi: −log10 of the molar value.
measurement_label: pKi

State, in one line, measured pKi of NS(=O)(=O)c1ccc(C(=O)N2CCC(C(=O)NNC(=O)Nc3ccccc3F)CC2)cc1
7.61

[1] NS(=O)(=O)c1ccc(C(=O)N2CCC(C(=O)NNC(=S)Nc3ccccc3Cl)CC2)cc1
[2] COc1ccc(NC(=O)NNC(=O)C2CCN(C(=O)c3ccc(S(N)(=O)=O)cc3)CC2)cc1
Dear colleague, could you let me know whether 1 or 2 has the lower recorded pKi? Thanks. Indicate your choice by writing its label.
2
(2: 7.00, 1: 7.69)

[P] Cc1ccc(NC(=O)NNC(=O)C2CCN(C(=O)c3ccc(S(N)(=O)=O)cc3)CC2)cc1
[Q] NS(=O)(=O)c1ccc(C(=O)N2CCC(C(=O)NNC(=O)Nc3ccc(Cl)cc3)CC2)cc1
[R] COc1ccc(CNC(=O)NNC(=O)C2CCN(C(=O)c3ccc(S(N)(=O)=O)cc3)CC2)cc1
Arrange the 3 molecules by rising pKi, starting with the smallest. List each label, following the requested order.
Q, R, P
(Q: 6.96, R: 7.39, P: 7.66)

[I] Cc1cccc(C)c1NC(=S)NNC(=O)C1CCN(C(=O)c2ccc(S(N)(=O)=O)cc2)CC1
[II] Cc1ccccc1NC(=S)NNC(=O)C1CCN(C(=O)c2ccc(S(N)(=O)=O)cc2)CC1
[III] NS(=O)(=O)c1ccc(C(=O)N2CCC(C(=O)NNC(=S)Nc3cccc(Cl)c3)CC2)cc1
Number of molecules to sort: 3. Sort criterion: pKi, ascending. Your answer should be the labels, listed in the requested order.
I, II, III

---

measurement_label: melting point

Please look at this compound and report its melting point: NS(=O)(=O)c1ccc(C(=O)N2CCC(C(=O)NNC(=S)Nc3ccccc3)CC2)cc1
210 to 211 °C

Others:
Read off the recorded melting point for COc1cc(NC(=S)NNC(=O)C2CCN(C(=O)c3ccc(S(N)(=O)=O)cc3)CC2)cc(OC)c1OC
> 250 °C

Read off the recorded melting point for NS(=O)(=O)c1ccc(C(=O)N2CCC(C(=O)NNC(=O)Nc3ccccc3F)CC2)cc1
229 to 230 °C
